Biological target: T1, CPI80 (survivin, INCENP^1-80, borealin^10-109) (human, UniProt O15392 1-142; Q9NQS7 1-80; Q53HL2 10-109)
T1 construct: survivin, human; INCENP, human, residues 1-80; borealin, human, residues 10-109; 1:1:1 trimer by SEC-MALS; also called WT CPI80; source: E. coli BL21-CodonPlus (DE3)-RIL, purified (Glutathione Sepharose, SEC); not shown: His6, N-terminal, cleaved; GST, N-terminal, cleaved; copies: 1 + 1 + 1
T1 sequence (O15392 whole entry, chain 1 of 3, the tested form may be a part): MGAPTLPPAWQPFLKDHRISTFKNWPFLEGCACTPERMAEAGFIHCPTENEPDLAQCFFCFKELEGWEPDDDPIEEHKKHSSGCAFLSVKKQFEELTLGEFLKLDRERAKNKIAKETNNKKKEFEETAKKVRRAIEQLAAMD
T1 sequence (Q9NQS7 1-80, chain 2 of 3): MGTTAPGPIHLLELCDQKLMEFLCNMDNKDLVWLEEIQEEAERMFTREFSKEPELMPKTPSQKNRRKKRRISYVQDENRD
T1 sequence (Q53HL2 10-109, chain 3 of 3): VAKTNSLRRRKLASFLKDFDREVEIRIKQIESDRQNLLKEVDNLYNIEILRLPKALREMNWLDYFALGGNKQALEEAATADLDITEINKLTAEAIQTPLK
Assay: ITC; 400 µM peptide injected into 50 µM protein; 100 mM NaCl, 20 mM Tris-HCl pH 7.2, 1 mM DTT; 25°C; 1:1 binding model
Settings: both partners purified
Square brackets hold non-standard residues; d marks the D form. Ends that are not written are not given here. pT = C[C@@H](OP(=O)(O)O)[C@H](N)C(=O)O
PARAMETER: Kd (nM)
# number only, unit nM dropped from output

Query :: Find the recorded Kd belonging to AR[pT]KQTARKSTG (also called pH3T3; H3pT3 phosphopeptide; source: synthetic peptide (Peptide Protein Research Ltd)) [H3pT3 (1–12) phosphopeptide] and report it.
Result :: 1100

Query :: Given ARTKQTARKSTG (histone H3 residues 1-12; also called H3T3 nonphosphopeptide; nonphosphorylated H3 peptide; source: synthetic peptide (Peptide Protein Research Ltd)) [H3 (1–12) peptide] , state its recorded Kd.
Result :: 4600
